target: human full-length MKNK1 (Homo sapiens, UniProt Q9BUB5, T385D)
Construct: GST (N); purchased Carna Biosciences 02-145; host or cells: insect cells (baculovirus expression system)
Sequence (Q9BUB5 1-424 isoform Q9BUB5-2 T344D): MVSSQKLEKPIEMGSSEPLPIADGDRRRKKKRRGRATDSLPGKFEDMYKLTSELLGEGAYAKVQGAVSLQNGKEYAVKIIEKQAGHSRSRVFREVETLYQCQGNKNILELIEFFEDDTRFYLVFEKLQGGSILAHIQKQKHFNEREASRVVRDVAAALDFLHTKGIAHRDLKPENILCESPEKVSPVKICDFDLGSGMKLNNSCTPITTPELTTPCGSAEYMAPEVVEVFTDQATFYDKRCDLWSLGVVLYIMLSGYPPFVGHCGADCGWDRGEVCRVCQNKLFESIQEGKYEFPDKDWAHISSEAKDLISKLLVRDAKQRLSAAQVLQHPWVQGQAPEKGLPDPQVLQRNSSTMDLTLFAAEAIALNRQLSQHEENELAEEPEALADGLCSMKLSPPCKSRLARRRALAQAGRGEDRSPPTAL
assay_explanation: MKNK1 kinase high ATP assay (TR-FRET)
Type: biochemical
protocol_conditions: Table 1; MKNK1 kinase high ATP assay, 2 mM ATP; read-out: MKNK1 IC50
Exercise: for every item that follows, state its recorded IC50.
Respond with the bare value in nM.

Given `COc1cc2[nH]ncc2cc1Nc1ncnc2sc3c(c12)CC[C@H](C(=O)N1CCC(N(C)C)CC1)C3` , state its recorded IC50. 0.1

Need IC50, item `CSc1cc2[nH]ncc2cc1Nc1ncnc2sc3c(c12)CC[C@H](C(=O)N1C[C@H](C)O[C@@H](C)C1)C3` 5.3

Using the record for `CC(C)N(C(=O)[C@H]1CCc2c(sc3ncnc(Nc4ccc5[nH]ncc5c4)c23)C1)C(C)C` , report its IC50. 6.5

Item under review: `C[C@H]1COCCN1C(=O)[C@H]1CCc2c(sc3ncnc(Nc4cc5cn[nH]c5cc4N4CCC(N(C)C)CC4)c23)C1` . Reported IC50? 14.1

Please look up its IC50: `COc1cc2[nH]ncc2cc1Nc1ncnc2sc3c(c12)CC[C@H](C(=O)N1CCCC1)C3` 0.5

Sample `CN(C)C(=O)[C@H]1CCc2c(sc3ncnc(Nc4cc5cn[nH]c5cc4NCC(C)(C)O)c23)C1` — what was its IC50? 882

Given the entry `C[C@@H]1COCCN1C(=O)[C@H]1CCc2c(sc3ncnc(Nc4cc5cn[nH]c5cc4Br)c23)C1` , report its measured IC50. 5.8
